Target: Bcl-2-related protein A1 (Homo sapiens, UniProt Q16548)
Sequence (Q16548 whole entry): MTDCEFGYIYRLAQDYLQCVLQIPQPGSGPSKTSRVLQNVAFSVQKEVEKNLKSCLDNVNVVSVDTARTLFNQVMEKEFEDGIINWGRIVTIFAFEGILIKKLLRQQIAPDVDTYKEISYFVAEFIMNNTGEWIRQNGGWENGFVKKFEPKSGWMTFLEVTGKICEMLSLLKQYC
Assay: Inhibition of N-terminal FITC BH3 peptide binding to GST-tagged Bfl1 by fluorescence polarization assay
pIC50: −log10 of the molar value.
Reported pIC50 values are given for each entry in this list.

• CN1CCN(c2cc(O)n(-c3ccc(Cl)c(Cl)c3)c2O)CC1 = < 5.00

Name the reported pIC50 value associated with the compound Oc1c(Cl)c(N=Cc2ccccc2)c(O)n1-c1ccc(Cl)c(Cl)c1 [MLS-0067125.0001] < 4.30

* * *

Biological target: Bcl-2-related protein A1 (Homo sapiens, UniProt Q16548)
Sequence (Q16548 whole entry): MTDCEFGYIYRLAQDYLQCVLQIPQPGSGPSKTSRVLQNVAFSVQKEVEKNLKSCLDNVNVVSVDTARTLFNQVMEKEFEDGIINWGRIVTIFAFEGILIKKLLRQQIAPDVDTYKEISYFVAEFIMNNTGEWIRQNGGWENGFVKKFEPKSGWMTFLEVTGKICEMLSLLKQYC
Assay: Inhibition of N-terminal FITC BH3 peptide binding to GST-tagged Bfl1 by time resolved-FRET assay
pIC50: −log10 of the molar value.
Measure Name: pIC50

• CN1CCN(c2cc(O)n(-c3ccc(Cl)c(Cl)c3)c2O)CC1 = < 5.00

Now for another entry.
Query pIC50 on Bcl-2-related protein A1 (Homo sapiens, UniProt Q16548) for Oc1c(Cl)c(N=Cc2ccccc2)c(O)n1-c1ccc(Cl)c(Cl)c1 [MLS-0067125.0001] < 4.30
